Numbers sourced from ChEMBL document CHEMBL1136631.

Kindly state pIC50 for each of the entries shown.
# assayed target: Endothelin receptor type B (Homo sapiens)
# Sequence (P24530 whole entry): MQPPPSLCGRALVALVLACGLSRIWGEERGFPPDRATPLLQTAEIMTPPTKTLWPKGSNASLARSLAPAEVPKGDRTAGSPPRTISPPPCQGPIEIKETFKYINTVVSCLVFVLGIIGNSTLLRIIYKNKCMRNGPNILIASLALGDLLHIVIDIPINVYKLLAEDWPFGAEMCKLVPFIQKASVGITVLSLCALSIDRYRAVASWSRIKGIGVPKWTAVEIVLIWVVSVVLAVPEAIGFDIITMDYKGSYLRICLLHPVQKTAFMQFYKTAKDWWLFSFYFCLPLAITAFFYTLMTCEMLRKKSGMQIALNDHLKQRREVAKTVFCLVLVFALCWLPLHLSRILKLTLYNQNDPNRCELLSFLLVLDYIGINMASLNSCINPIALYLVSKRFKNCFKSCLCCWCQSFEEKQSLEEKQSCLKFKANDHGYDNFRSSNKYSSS
# procedure text: Inhibitory concentration required against [125I]ET1 binding to membranes of CHO cells expressing human ETB receptor
One number for each entry, as −log10 of the molar value.

Illustrative cases are given below, each with its answer.
> print(dat)
                                smiles.code                            assayed.target  readout.number
1  COc1ccccc1Oc1c(NS(=O)(=O)c2ccc(C(C)C)cn2)nc(N2CCOCC2)nc1OCCNS(=O)(=O)c1ccc(C)cc1  Endothelin receptor type B (Homo sapiens)            8.05
2  CCS(=O)(=O)NCCOc1nc(N2CCOCC2)nc(NS(=O)(=O)c2ccc(C(C)C)cn2)c1Oc1ccccc1OC  Endothelin receptor type B (Homo sapiens)            6.91
3  COc1ccccc1Oc1c(NS(=O)(=O)c2ccc(C(C)C)cn2)nc(-c2cc(OC)c(OC)c(OC)c2)nc1OCCNS(=O)(=O)c1cccs1  Endothelin receptor type B (Homo sapiens)            8.15
4  COc1ccccc1Oc1c(NS(=O)(=O)c2ccc(C(C)C)cn2)nc(N2CCOCC2)nc1OCCCNS(=O)(=O)c1ccc(C)cc1  Endothelin receptor type B (Homo sapiens)            7.62
5  CCS(=O)(=O)NCCOc1nc(-c2ncccn2)nc(NS(=O)(=O)c2ccc(C(C)(C)C)cc2)c1Oc1ccccc1OC  Endothelin receptor type B (Homo sapiens)            6.06
6  COc1ccccc1Oc1c(NS(=O)(=O)c2ccc(C)cn2)nc(Cc2ccc3c(c2)OCO3)nc1OCCNS(=O)(=O)c1cccs1  Endothelin receptor type B (Homo sapiens)            5.68

Could you now consider this next compound?
Query for Endothelin receptor type B (Homo sapiens): what pIC50 does the record show for COc1ccccc1Oc1c(NS(=O)(=O)c2ccc(C(C)(C)C)cc2)nc(-c2ncccn2)nc1OCCCNS(=O)(=O)c1cccs1 ?
8.40

* * *

# assayed target: Endothelin receptor type B (Rattus norvegicus, UniProt P21451)
# Sequence (P21451 whole entry): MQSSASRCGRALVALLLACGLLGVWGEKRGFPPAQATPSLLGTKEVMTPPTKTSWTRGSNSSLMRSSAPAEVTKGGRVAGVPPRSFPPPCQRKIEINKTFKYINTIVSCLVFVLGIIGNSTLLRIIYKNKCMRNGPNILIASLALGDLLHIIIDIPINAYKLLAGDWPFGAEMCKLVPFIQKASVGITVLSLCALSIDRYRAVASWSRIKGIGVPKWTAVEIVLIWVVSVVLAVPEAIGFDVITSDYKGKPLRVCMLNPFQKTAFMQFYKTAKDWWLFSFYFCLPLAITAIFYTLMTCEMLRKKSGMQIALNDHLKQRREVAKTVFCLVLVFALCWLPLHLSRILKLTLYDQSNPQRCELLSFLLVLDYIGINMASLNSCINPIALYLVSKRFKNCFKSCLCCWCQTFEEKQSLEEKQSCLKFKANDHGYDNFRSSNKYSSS
# procedure text: In vitro inhibitory potency for preventing sarafotoxin S6c induced constriction of rat tracheal rings (ETB receptor)
# Type: functional, tissue-based, Trachea
# run parameters: read-out: pA2 (converted)
assay endpoint: Kb (nM)
One number for each entry, in nM.

Illustrative cases are given below, each with its answer.
> print(dat)
                                smiles.code  readout.number
1  COc1ccccc1Oc1c(NS(=O)(=O)c2ccc(C(C)C)cn2)nc(C2CC2)nc1OCCCNS(=O)(=O)c1ccc(C)cc1              49
2  CCCS(=O)(=O)NCCOc1nc(C2CC2)nc(NS(=O)(=O)c2ccc(C(C)C)cn2)c1Oc1ccccc1OC             363

Could you now consider this next compound?
State the recorded Kb for this entry: COc1ccccc1Oc1c(NS(=O)(=O)c2ccc(C(C)C)cn2)nc(C2CC2)nc1OCCCNS(=O)(=O)c1cccs1
9.12
